The measured values listed here are drawn from ChEMBL document CHEMBL3797045.

- System: Mycobacterium tuberculosis
- experiment: Activity at Mycobacterium tuberculosis beta lactamase BlaC expressed in Escherichia coli assessed as ratio of Kcat to Km by spectrophotometric method
Provide the reported kcat/Km of each item.

Prompt line: Can you look up kcat/Km on Mycobacterium tuberculosis for "CCSC1=C(C(=O)O)N2C(=O)[C@H]([C@@H](C)O)[C@H]2[C@H]1C" ?
Response line: 3700 M⁻¹ s⁻¹

Prompt line: Can you look up kcat/Km on Mycobacterium tuberculosis for "C[C@@H](O)[C@H]1C(=O)N2C(C(=O)O)=C(SCCc3ccccc3)[C@H](C)[C@H]12" ?
Response line: 360 M⁻¹ s⁻¹

Prompt line: Can you look up kcat/Km on Mycobacterium tuberculosis for "C[C@@H](O)[C@H]1C(=O)N2C(C(=O)O)=C(S[C@@H]3CN[C@H](C(=O)N(C)C)C3)[C@H](C)[C@H]12" ?
Response line: 1000 M⁻¹ s⁻¹
